molecular target: human renin (Homo sapiens, UniProt P00797); assay: Determination of Renin IC50 by tGFP FRET Assay; settings: Human recombinant renin, tandem GFP substrate 650 nM, renin and compound incubated 60 minutes before substrate, pH 7.4
Sequence (P00797 67-406): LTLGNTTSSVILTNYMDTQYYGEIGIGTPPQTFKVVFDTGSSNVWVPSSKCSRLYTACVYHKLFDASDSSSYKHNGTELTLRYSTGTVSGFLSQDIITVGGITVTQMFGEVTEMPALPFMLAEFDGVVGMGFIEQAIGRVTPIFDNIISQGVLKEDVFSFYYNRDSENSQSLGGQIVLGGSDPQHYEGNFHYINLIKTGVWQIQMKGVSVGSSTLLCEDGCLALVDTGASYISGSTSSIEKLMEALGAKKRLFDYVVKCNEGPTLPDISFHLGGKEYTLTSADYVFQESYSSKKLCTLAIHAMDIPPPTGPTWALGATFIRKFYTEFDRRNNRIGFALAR
experimental endpoint: IC50 (nM)

compound: O=S(=O)(N[C@@H]1CNCC[C@@H]1c1ccc(OCCCOCc2ccccc2F)cc1)c1ccc2ccccc2c1 (racemic)
IC50 [nM]: 693
//
compound: COC(=O)COc1cccc(CN[C@H]2CNCC[C@H]2c2ccc(OCCCOCc3ccccc3F)cc2)c1 (racemic)
IC50 [nM]: 924
//
compound: COC(=O)c1ccc2cc(CN[C@@H]3CNCC[C@@H]3c3ccc(OCCCOCc4ccccc4F)cc3)ccc2c1
IC50 [nM]: 877
